Recorded values, source patent US9265253B2.

Let's look at some compounds and their measured pest or weed control at 100 ppm.
Test system: Uncinula necator
Method Notes: Grape Powdery Mildew (UNCINE) disease control
Format: in vivo
Test Context: Erysiphe necator, topical, 24 h, 1 Day Protectant, read-out: Disease Control UNCINE 1 DP
Endpoint: pest or weed control at 100 ppm

Structure Smiles: CCCO[C@@H]1[C@@H](Cc2ccccc2)CCC[C@H](NC(=O)c2nccc(OC)c2OC(C)=O)C(=O)O[C@H]1C
Readout Value: 80 to 100%
--
Structure Smiles: COc1ccnc(C(=O)N[C@H]2CCC[C@H](Cc3ccccc3)[C@@H](OCC(C)C)[C@H](C)OC2=O)c1OCOC(C)=O
Readout Value: 80 to 100%
--
Structure Smiles: CCCO[C@@H]1[C@@H](CCC(C)C)CCC[C@H](NC(=O)c2nccc(OC)c2OCOC(C)=O)C(=O)O[C@H]1C
Readout Value: 80 to 100%
--
Structure Smiles: COc1ccnc(C(=O)N[C@H]2CCC[C@H](CC3CCCC3)[C@@H](OCC3CC3)[C@H](C)OC2=O)c1OCOC(C)=O
Readout Value: 80 to 100%
--
Structure Smiles: COc1ccnc(C(=O)N[C@H]2CCC[C@H](Cc3ccc(F)cc3F)[C@@H](OC(=O)c3ccco3)[C@H](C)OC2=O)c1OCOC(=O)C(C)C
Readout Value: 80 to 100%
--
Structure Smiles: CCCO[C@@H]1[C@@H](Cc2ccc(F)cc2)CCC[C@H](NC(=O)c2nccc(OC)c2OCOC(C)=O)C(=O)O[C@H]1C
Readout Value: 80 to 100%
--
Structure Smiles: CCCO[C@@H]1[C@@H](Cc2ccccc2)CCC[C@H](NC(=O)c2nccc(OC)c2OCOC(=O)COCC)C(=O)O[C@H]1C
Readout Value: 80 to 100%
--
Structure Smiles: COCC[C@H]1CCC[C@H](NC(=O)c2nccc(OC)c2OCOC(C)=O)C(=O)O[C@@H](C)[C@@H]1Oc1ccccc1
Readout Value: 0 to 80%
--
Structure Smiles: CCOCC(=O)OCOc1c(OC)ccnc1C(=O)N[C@H]1CCC[C@H](CCOC)[C@@H](Oc2ccccc2)[C@H](C)OC1=O
Readout Value: 80 to 100%
--
Structure Smiles: CCCO[C@@H]1[C@@H](Cc2ccccc2)CCC[C@H](NC(=O)c2nccc(OC)c2OCOC(C)=O)C(=O)O[C@H]1C
Readout Value: 80 to 100%
--
Structure Smiles: CCOCC(=O)OCOc1c(OC)ccnc1C(=O)N[C@H]1CCC[C@H](Cc2ccc(F)cc2)[C@@H](OCC2CC2)[C@H](C)OC1=O
Readout Value: 80 to 100%
--
Structure Smiles: CCOCC(=O)OCOc1c(OC)ccnc1C(=O)N[C@H]1CCC[C@H](Cc2ccc(F)cc2F)[C@@H](OC(=O)c2ccco2)[C@H](C)OC1=O
Readout Value: 0 to 80%
--
Structure Smiles: CCCO[C@@H]1[C@@H](CCC(C)C)CCC[C@H](NC(=O)c2nccc(OC)c2OCOC(=O)COCC)C(=O)O[C@H]1C
Readout Value: 80 to 100%

* * *

System: Phakopsora pachyrhizi
Method Notes: Asian Soybean Rust (PHAKPA) disease control
Format: in vivo
Test Context: Phakopsora pachyrhizi, topical, 72 h, 3 Day Curative, read-out: Disease Control PHAKPA 3DC
Method: Technical grades of materials were dissolved in acetone, which were then mixed with nine volumes of water containing 0.011% Tween 20. The fungicide solutions were applied onto soybean seedlings using an automated booth sprayer to run-off. All sprayed plants were allowed to air dry prior to further handling. Soybean plants (variety Williams 82) were grown in soil-less Metro mix, with one plant per pot. Two weeks old seedlings were used for testing. […] Disease severity was assessed on the sprayed leaves.
# reported pest or weed control at 25 ppm; entries follow

Structure Smiles: CCOCC(=O)OCOc1c(OC)ccnc1C(=O)N[C@H]1CCC[C@H](CCOC)[C@@H](Oc2ccccc2)[C@H](C)OC1=O
Measured Target: Phakopsora pachyrhizi
pest or weed control at 25 ppm: 80 to 100%
--
Structure Smiles: COc1ccnc(C(=O)N[C@H]2CCC[C@H](CCC(C)C)[C@@H](OCC3CC3)[C@H](C)OC2=O)c1OC(C)=O
Measured Target: Phakopsora pachyrhizi
pest or weed control at 25 ppm: 80 to 100%
--
Structure Smiles: CCCO[C@@H]1[C@@H](Cc2ccccc2)CCC[C@H](NC(=O)c2nccc(OC)c2OCOC(C)=O)C(=O)O[C@H]1C
Measured Target: Phakopsora pachyrhizi
pest or weed control at 25 ppm: 0 to 80%
--
Structure Smiles: COc1ccnc(C(=O)N[C@H]2CCC[C@H](Cc3ccccc3)[C@@H](OCC3CC3)[C@H](C)OC2=O)c1OCOC(C)=O
Measured Target: Phakopsora pachyrhizi
pest or weed control at 25 ppm: 80 to 100%
--
Structure Smiles: COc1ccnc(C(=O)N[C@H]2CCC[C@H](CCF)[C@@H](OCC(C)C)[C@H](C)OC2=O)c1OCOC(C)=O
Measured Target: Phakopsora pachyrhizi
pest or weed control at 25 ppm: 80 to 100%
--
Structure Smiles: COc1ccnc(C(=O)N[C@H]2CCC[C@H](C)[C@@H](Oc3ccccc3)[C@H](C)OC2=O)c1OCOC(C)=O
Measured Target: Phakopsora pachyrhizi
pest or weed control at 25 ppm: 80 to 100%

* * *

Tested on: Cercospora beticola
Method Notes: Leaf Spot of Sugar Beets (CERCBE) disease control
Assay type: in vivo
Test Context: Cercospora beticola, topical, 24 h, 1 Day Protectant, sugar beet, read-out: Disease Control CERCBE 1 DP
Reported pest or weed control at 100 ppm values follow for various compounds
Endpoint: pest or weed control at 100 ppm

Compound: COc1ccnc(C(=O)N[C@H]2CCC[C@H](Cc3ccc(F)cc3F)[C@@H](OCC(C)C)[C@H](C)OC2=O)c1OCOC(C)=O [Compound F145]
Readout Value: 80 to 100%

Compound: COc1ccnc(C(=O)N[C@H]2CCC[C@H](Cc3ccc(F)cc3F)[C@@H](OC(=O)c3ccco3)[C@H](C)OC2=O)c1OCOC(=O)C(C)C [Compound F157]
Readout Value: 80 to 100%

Compound: COc1ccnc(C(=O)N[C@H]2CCC[C@H](CC(F)F)[C@@H](Oc3ccccc3)[C@H](C)OC2=O)c1OCOC(C)=O [Compound F138]
Readout Value: 80 to 100%

Compound: C=C[C@H]1CCC[C@H](NC(=O)c2nccc(OC)c2OC(C)=O)C(=O)O[C@@H](C)[C@@H]1Oc1ccccc1 [Compound F86]
Readout Value: 80 to 100%

Compound: COCC[C@H]1CCC[C@H](NC(=O)c2nccc(OC)c2OC(C)=O)C(=O)O[C@@H](C)[C@@H]1Oc1ccccc1 [Compound F78]
Readout Value: 80 to 100%

Compound: COc1ccnc(C(=O)N[C@H]2CCC[C@H](CCBr)[C@@H](Oc3ccccc3)[C@H](C)OC2=O)c1OC(C)=O [Compound F80]
Readout Value: 80 to 100%

* * *

Tested on: Mycosphaerella graminicola; Anamorph: Septoria tritici
Method Notes: Leaf Blotch of Wheat (SEPTTR) disease control
Assay type: in vivo
Test Context: Zymoseptoria tritici, 24 h, 1 Day Protectant, rate 100 ppm; read-out: SEPTTR 1 DP disease control

Structure Smiles: CC[C@H]1CCC[C@H](NC(=O)c2nccc(OC)c2OC(C)=O)C(=O)O[C@@H](C)[C@@H]1Oc1ccccc1
Measured Target: Mycosphaerella graminicola; Anamorph: Septoria tritici
pest or weed control at 100 ppm: 80 to 100%
//
Structure Smiles: COc1ccnc(C(=O)N[C@H]2CCC[C@H](CCC(C)C)[C@@H](OCC3CC3)[C@H](C)OC2=O)c1OCOC(=O)C(C)C
Measured Target: Mycosphaerella graminicola; Anamorph: Septoria tritici
pest or weed control at 100 ppm: 80 to 100%
//
Structure Smiles: CCOCC(=O)OCOc1c(OC)ccnc1C(=O)N[C@H]1CCC[C@H](CCC(C)C)[C@@H](OCC(C)C)[C@H](C)OC1=O
Measured Target: Mycosphaerella graminicola; Anamorph: Septoria tritici
pest or weed control at 100 ppm: 80 to 100%

* * *

Tested on: Uncinula necator
Method Notes: Grape Powdery Mildew (UNCINE) disease control
Type: in vivo
Test Context: Erysiphe necator, topical, 24 h, 1 Day Protectant, read-out: Disease Control UNCINE 1 DP
Endpoint: pest or weed control at 100 ppm

Compound: COc1ccnc(C(=O)N[C@H]2CCC[C@H](Cc3ccccc3)[C@@H](Oc3ccccc3)[C@H](C)OC2=O)c1OCOC(C)=O [Compound F108]
Readout Value: 80 to 100%

Compound: COc1ccnc(C(=O)N[C@H]2CCC[C@H](Cc3ccccc3)[C@@H](OCC(C)C)[C@H](C)OC2=O)c1OC(C)=O [Compound F70]
Readout Value: 80 to 100%

Compound: COc1ccnc(C(=O)N[C@H]2CCC[C@H](Cc3ccc(F)cc3F)[C@@H](OC(=O)c3ccco3)[C@H](C)OC2=O)c1OCOC(C)=O [Compound F144]
Readout Value: 0 to 80%

Compound: CCOCC(=O)OCOc1c(OC)ccnc1C(=O)N[C@H]1CCC[C@H](Cc2ccc(F)cc2)[C@@H](OCC(C)C)[C@H](C)OC1=O [Compound F168]
Readout Value: 80 to 100%

Compound: CCOCC(=O)OCOc1c(OC)ccnc1C(=O)N[C@H]1CCC[C@H](CCF)[C@@H](OCC(C)C)[C@H](C)OC1=O [Compound F181]
Readout Value: 0 to 80%

Compound: C=C[C@H]1CCC[C@H](NC(=O)c2nccc(OC)c2OCOC(C)=O)C(=O)O[C@@H](C)[C@@H]1Oc1ccccc1 [Compound F146]
Readout Value: 80 to 100%
